system: NCI-H23; assay: NCI tumour cell line growth inhibition, 48 h
Calls of active or inactive are those of the source. No stated cut-off is given here; in the data, active = GI50 up to about 1.1 µM and inactive = higher.
Labels: active, inactive

Structure as smiles | Assigned category
NS(=O)(=O)c1ccc(/N=N/c2cnc(O)c(O)c2)cc1 | inactive
CC(C)(C)n1c(=O)n2n(c1=O)C1c3cccc4cccc(c34)C2C2c3cccc4cccc(c34)C1n1c(=O)n(C(C)(C)C)c(=O)n12 | inactive
C(=N/Nc1ccc(-c2nc3ccccc3[nH]2)cc1)/c1c(-c2ccccc2)[nH]c2ccccc12 | active
N#Cc1c(-c2ccc(Cl)cc2)cc(-c2ccc(Nc3ccnc4cc(C(F)(F)F)ccc34)cc2)[nH]c1=O | inactive
